# Tested on: SN12C renal
# method-notes: NCI-60 one-dose screen, 48 h (100 = growth as untreated, 0 = no growth, -100 = all killed)
# condition-set: 10 µM
The panel holds about 83,000 compounds, 20% with a hit somewhere; the sample as a whole holds those more often.
Response field label takes true when growth is strictly below 90% and false in all other cases.

• CCC1NC(=O)c2cc(S(N)(=O)=O)c(Cl)cc2N1 (stereo not given) = false
• COc1cc(C(=O)n2nc(-c3cc(OC)c(OC)c(OC)c3)nc2N)cc(OC)c1OC = false
• CCn1c(SCCc2ccccc2)nnc1-c1nn(-c2ccc(Cl)cc2Cl)c(-c2ccc(Cl)cc2)c1C = true

Alright, here's another compound for you.
**Q:** I'd appreciate it if you could check whether CS(=O)(=O)c1nccc(-c2c(-c3cccc(OCCN4CCOCC4)c3)nc3sccn23)n1 has growth smaller than 90%.
**A:** false

###

growth reference
# Tested on: A549/ATCC NSCLC
# method-notes: NCI-60 one-dose screen, 48 h (100 = growth as untreated, 0 = no growth, -100 = all killed)
# condition-set: 10 µM
The panel holds about 83,000 compounds, 20% with a hit somewhere; the sample as a whole holds those more often.
Use % as the unit, but write only the number.

* C[N+]1(CCCCC[N+]2(C)CCCC2)CCCC1 | 76.2

**Q:** For COc1cc2c(Nc3ccc(-c4ccc(N)cc4)cc3)ncnc2c(OC)c1OC , what is its reported growth?
**A:** 29.2

**Q:** So what's the measured growth for this one? CN(C)CCCOc1ccccc1NC1=C(Cl)C(=O)C(Nc2ccccc2OCCCN(C)C)=C(Cl)C1=O
**A:** -55.6

**Q:** Name the reported growth value associated with the compound c1ccc(CSc2ncccc2-c2nnc(SCCN3CCOCC3)o2)cc1
**A:** 112

**Q:** Quick one: growth of CC(=O)Nc1ccc(S(=O)(=O)N/N=C(\C)c2ccc(C)cc2C)cc1 ?
**A:** 99.9

**Q:** Field request: growth | item: CC1C(=NC(=O)c2cnccn2)C(C)C(c2ccc(Cl)cc2)NC1c1ccncc1 (stereo not drawn)
**A:** 92.9

**Q:** Look at this compound and give its reported growth. CCCCc1oc2ccccc2c1C(=O)c1cc(I)c(OCCN(CC)CC)c(I)c1
**A:** 9.9

**Q:** Fill blank: measured growth of the compound C=CCn1c(SCC(=O)Nc2ccc(C(=O)/C=C/c3ccc(Cl)cc3)cc2)nnc1-c1cc(-c2ccccc2)nc2ccccc12 is ____.
**A:** 89.7

**Q:** Given COc1cc(N)c2ncccc2c1SC , state its recorded growth.
**A:** 99.5

**Q:** Any idea what its growth is? The compound is O=C(O)COc1c(Cl)cc([N+](=O)[O-])cc1Cl
**A:** 81.7

###

# Tested on: SF-295 CNS
# method-notes: NCI-60 one-dose screen, 48 h (100 = growth as untreated, 0 = no growth, -100 = all killed)
# condition-set: 10 µM
The panel holds about 83,000 compounds, 20% with a hit somewhere; the sample as a whole holds those more often. The source made the active and inactive calls. Rule for the calls: active = growth percent below 10; inactive = the rest.
endpoint-label: growth

Example results:
• O=C(CCNC(=O)c1nc(-c2ccccc2)n(-c2ccc(Cl)cc2)n1)NO = 99% (inactive)
• Cc1ccc(-c2c3c(N)nc(-c4cccnc4)nc3nc3c2c(C)nn3-c2ccccc2)cc1 = 96.1% (inactive)

**Q:** So what growth did O=C(Nc1cc(Cl)cc2c1-c1ccc(Cl)cc1C2O)C(Cl)Cl (configuration not stated) get with SF-295 CNS?
**A:** 83.4% (inactive)

**Q:** Lab note: need growth for Cc1ccc(C)c(COc2cc(NC(=O)c3ccc4c(c3)OCO4)ccc2N(C)S(C)(=O)=O)c1 on SF-295 CNS, anyone have it?
**A:** -4.18% (active)

**Q:** Find growth (SF-295 CNS) for the entry O=C1CCn2c1c(O)c1ccccc1c2=O
**A:** 97.2% (inactive)

**Q:** Give SF-295 CNS growth for O=C(Nc1nc(-c2ccccc2)nc2c1sc(=S)n2-c1ccccc1)C(F)(F)F
**A:** 88.4% (inactive)

**Q:** Write down the reported growth of CC(CN(C)C)Oc1ccc(OC(C)CN(C)C)c2c1C(=O)c1ccccc1C2=O (configuration not stated) , test system: SF-295 CNS.
**A:** 48.2% (inactive)

**Q:** Give SF-295 CNS growth for C[n+]1c2ccccc2nc2ccccc21
**A:** 23.4% (inactive)

**Q:** Item Cc1ccc(Cl)cc1NC(=O)CCl with SF-295 CNS - growth?
**A:** 104% (inactive)

**Q:** State its growth on SF-295 CNS: COc1ccc(C(=O)CC(CC(=O)c2ccc(OC)cc2)c2c(C)nn(-c3ccccc3)c2Cl)cc1
**A:** 92.2% (inactive)

**Q:** Report growth for CN(C)c1ncnc2c1nnn2C1OC(CO)C(O)C1O (configuration not stated) tested on SF-295 CNS.
**A:** 6.4% (active)

**Q:** Form field: growth recorded for OC[C@H]1OC([S-])[C@H](O)[C@@H](O)[C@@H]1O.[Au+] (some centres not stated) with SF-295 CNS (enter value)
**A:** 113% (inactive)

**Q:** Kindly state the measured growth obtained for CC1OC2CC(=O)OC2C2=C1C(=O)c1c(O)c3c(c(O)c1C2=O)C1CC(O)C3(O)C(C)O1 (configuration not stated) with SF-295 CNS.
**A:** 3.26% (active)
